# credit: PubChem BioAssay AID505

Would you mind telling me the reported Tm shift of each entry?
Biological target: Serine/threonine-protein kinase pim-2 (Homo sapiens)
Assay: PIM2 kinase ligand binding by thermal shift, biophysical, human, melting temperature shift (AID 505)
Settings: Recombinant PIM2 thermal shift, Tm change; at 10 µM; buffer 10 mM HEPES; pH 7.5; NaCl 100 mM; with 50 µM L-Arg/L-Glu (1:1); hits give high values

Data request: Can you share its Tm shift? I mean this compound: `Fc1ccc(CNc2ccc3ncc(-c4ccco4)n3n2)cc1`
Data returned: 3.36 Celsius

Data request: Using the record for `CC(=O)c1cccc(-c2cnc3ccc(NCC4CC4)nn23)c1` , report its Tm shift.
Data returned: 4.29 Celsius

Data request: Entry `Clc1cccc(-c2cnc3ccc(NCCc4ccccn4)nn23)c1` has what Tm shift?
Data returned: 3.46 Celsius

Data request: Consider the compound O=C1C(=O)C(c2cc(O)c(O)c(O)c2)Oc2cc(O)cc(O)c21 (stereo unspecified) and give its measured Tm shift.
Data returned: 4.13 Celsius

Data request: Name the reported Tm shift value associated with the compound `NC1=N/C(=C2/CCNC(=O)c3[nH]c(Br)cc32)C(=O)N1`
Data returned: 3.73 Celsius

Data request: GET /values?readout=Tm shift&item= `CN(C)CCCn1cc(C2=C(c3c[nH]c4ccccc34)C(=O)NC2=O)c2ccccc21`
Data returned: 4.21 Celsius

Data request: Please give the measured Tm shift for this compound: `O=C1NC(=O)c2c1c1c3ccccc3n3c1c1c2c2ccccc2n1[C@@H]1CCC3O1`
Data returned: 11.1 Celsius

Data request: Can you share its Tm shift? I mean this compound: `O=C1NC(=O)c2c1c1c3ccccc3[nH]c1c1[nH]c3cc(Br)ccc3c21`
Data returned: 6.31 Celsius

Data request: Tell me the measured Tm shift of `Clc1cccc(-c2cnc3ccc(NC4CCOCC4)nn23)c1` , please.
Data returned: 5.64 Celsius

Data request: Any idea what its Tm shift is? The compound is `O=c1c(O)c(-c2cc(O)c(O)c(O)c2)oc2cc(O)cc(O)c12`
Data returned: 4.74 Celsius

Data request: What value of measured Tm shift is listed for `Clc1cccc(Nc2ccn3ncc(-c4ccsc4)c3n2)c1` ?
Data returned: 3.45 Celsius
